Test system: HIV-1 RT mutant V106A/F227L/L234I
procedure_details: single round infection assay, V106A/F227L/L234I
Assay type: cell-based
condition_info: V106A/F227L/L234I vs WT
// reported fold-change of IC50 of the mutant relative to WT for each item listed
result_type: fold-change of IC50 of the mutant relative to WT

structure_smiles	recorded_measurement
Cc1cc(/C=C/C#N)cc(C)c1-n1cnc2cnc(Nc3ccc(C#N)cc3)nc21	< 2
Cc1cc(/C=C/C#N)cc(C)c1Nc1ncc([N+](=O)[O-])c(Nc2ccc(C#N)cc2)n1	< 2
COc1ccc(Cn2cnc3c(Nc4ccc(C#N)cc4)nc(Nc4c(C)cc(/C=C/C#N)cc4C)nc32)cc1	< 2
